# Test protocol: Human pharmacokinetic study: valdecoxib blood plasma concentration by HPLC
# Format: in vivo
# Test conditions: male, human, plasma, po, 20 mg
Recorded metric: Tmax

Prompt: Find the recorded Tmax belonging to Cc1onc(-c2ccccc2)c1-c1ccc(S(N)(=O)=O)cc1 [valdecoxib] and report it.
Completion: 3.11 h
